Test method notes: folding stability dG unfold (combined trypsin and chymotrypsin); higher = more stable
Parameter threshold = 2 kcal/mol. Response is Criterion met when folding stability dG unfold meets or exceeds it, else Criterion not met.

Known results for sequences:
                              sequence_text              label
0  SSSGPKTELITLKYEEPVRSPEEAEARARALAEEIAERTGAPIEVDVEIEYDPETGKAYVTVPVRVLLPDSA [r9_741_JUSTAS]  Criterion not met
1  SAGGSPIQTAVTTNTLGNETITTTTLVPPEAVATSVTTVYEPDPNSDNYVVKSVLTTTTSTLPPSDAASAGG [r13_568_JUSTAS]  Criterion not met
2  SAGGSAGGSAGGPLKEAVEAAVASGAPEAEYLLVTPEGELRVTVKVYPEEGKVEVEVSPLSAGGSAGGSAGG [r17_475_TrMRF]  Criterion not met
3  SAGGSAELVSVDVELEGRYLRVRARFRLPDGREVEVEVRFSLPGVPPAPPVFPYRDPETGELRLGLSAGGSA [r15_335_TrMRF]      Criterion met
4  SAGGSAYITIDDIKKLGPNMPIMVEPPKGRLMIFSPNQMVKITIDPDDDTIKVKEVFDSPEAMEKLSAGGSA [r15_6_TrROS]  Criterion not met

stdin: Identify whether the reported folding stability dG unfold of the following sequence is 2 kcal/mol or greater: SAGKTIVIKAKTAEEAINALLKELKKKGEKVKITVTVYDKNGKEVYRVTIEIDPKEKGKIKIKVEKVPSAGG [r19_85_TrROS_Hall]
stdout: Criterion met
